Measured pIC50 on UniProtKB P21589 follows.
Sequence (P21589 whole entry): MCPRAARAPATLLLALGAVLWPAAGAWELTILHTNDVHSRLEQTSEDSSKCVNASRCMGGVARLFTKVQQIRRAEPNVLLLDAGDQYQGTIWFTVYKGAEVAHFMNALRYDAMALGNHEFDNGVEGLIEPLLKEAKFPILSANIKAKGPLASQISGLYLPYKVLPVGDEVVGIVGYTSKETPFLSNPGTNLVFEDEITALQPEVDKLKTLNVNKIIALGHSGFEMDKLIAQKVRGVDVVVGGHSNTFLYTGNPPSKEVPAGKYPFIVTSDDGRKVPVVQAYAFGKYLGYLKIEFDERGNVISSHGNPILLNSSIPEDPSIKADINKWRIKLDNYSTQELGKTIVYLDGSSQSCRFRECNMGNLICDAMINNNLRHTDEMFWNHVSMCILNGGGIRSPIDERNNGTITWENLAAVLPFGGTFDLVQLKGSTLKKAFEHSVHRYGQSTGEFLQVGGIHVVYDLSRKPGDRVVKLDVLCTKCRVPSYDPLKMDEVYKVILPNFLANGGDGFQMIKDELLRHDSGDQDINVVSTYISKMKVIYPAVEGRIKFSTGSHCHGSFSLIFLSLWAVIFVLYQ
Remember the convention: pIC50 equals -log10 of concentration in molar.

Before answering, review these 3 worked examples.
Request the reported pIC50 associated with C=C(C)[C@@H]1CC[C@]2(CO)CC[C@]3(C)[C@H](CC[C@@H]4[C@@]5(C)CC[C@H](O)C(C)(C)[C@@H]5CC[C@]43C)[C@@H]12
4.64

Also O=c1oc2c(O)c(O)cc3c(=O)oc4c(O)c(O)cc1c4c23 , if possible.
5.73

Can you check O=C(OC[C@H]1O[C@@H](OC(=O)c2cc(O)c(O)c(O)c2)[C@H](OC(=O)c2cc(O)c(O)c(O)c2)[C@@H](OC(=O)c2cc(O)c(O)c(O)c2)[C@@H]1OC(=O)c1cc(O)c(O)c(O)c1)c1cc(O)c(O)c(O)c1 next?
4.98

Attention now turns to another entry.
Which pIC50 value belongs to Nc1ncnc2c1ncn2[C@@H]1O[C@H](COP(=O)(O)CP(=O)(O)O)[C@@H](O)[C@H]1O ?
5.40

----------
Listed molecules paired with reported IC50
System: MDA-MB-231
Assay Protocol: Cytotoxicity against human MDA-MB-231 cells expressing CD73 assessed as reduction in cell viability by CCK8 assay
Type: functional, cell-based
Give your result in µM as a bare value.

Known IC50 results, listed for orientation:
What does the record list as IC50 for Nc1ccn([C@@H]2O[C@H](CO)[C@@H](O)C2(F)F)c(=O)n1 ?
1.15

Now the same for O=c1oc2c(O)c(O)cc3c(=O)oc4c(O)c(O)cc1c4c23
27.4

And for O=C(OC[C@H]1O[C@@H](OC(=O)c2cc(O)c(O)c(O)c2)[C@H](OC(=O)c2cc(O)c(O)c(O)c2)[C@@H](OC(=O)c2cc(O)c(O)c(O)c2)[C@@H]1OC(=O)c1cc(O)c(O)c(O)c1)c1cc(O)c(O)c(O)c1 ?
9.12

Further cases:
For the molecule C=C(C)[C@@H]1CC[C@]2(CO)CC[C@]3(C)[C@H](CC[C@@H]4[C@@]5(C)CC[C@H](O)C(C)(C)[C@@H]5CC[C@]43C)[C@@H]12 , what IC50 is on record?
24.6

----------
Assay System: UniProt Q61503
Sequence (Q61503 whole entry): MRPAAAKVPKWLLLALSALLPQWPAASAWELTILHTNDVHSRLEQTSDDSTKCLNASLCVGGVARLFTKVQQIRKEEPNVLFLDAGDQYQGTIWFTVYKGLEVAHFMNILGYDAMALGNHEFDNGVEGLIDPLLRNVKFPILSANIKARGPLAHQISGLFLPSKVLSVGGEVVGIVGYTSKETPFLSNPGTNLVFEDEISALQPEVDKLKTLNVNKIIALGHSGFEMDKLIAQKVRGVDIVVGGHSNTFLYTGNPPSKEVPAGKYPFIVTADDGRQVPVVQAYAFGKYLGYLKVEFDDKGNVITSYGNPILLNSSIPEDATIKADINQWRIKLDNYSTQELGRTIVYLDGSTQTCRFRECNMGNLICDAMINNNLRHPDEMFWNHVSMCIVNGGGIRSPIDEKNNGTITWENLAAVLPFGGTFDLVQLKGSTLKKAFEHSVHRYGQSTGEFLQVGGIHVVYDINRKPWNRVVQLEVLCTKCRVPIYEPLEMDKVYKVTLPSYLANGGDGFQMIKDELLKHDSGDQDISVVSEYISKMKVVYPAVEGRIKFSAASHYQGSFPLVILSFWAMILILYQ
Reported Property: IC50 (µM)
The response must be a number in µM with no trailing unit.

API: value(readout= IC50, system= UniProt Q61503, query= Nc1ncnc2c1ncn2[C@@H]1O[C@H](COP(=O)(O)CP(=O)(O)O)[C@@H](O)[C@H]1O )
4.63

Quick one: C=C(C)[C@@H]1CC[C@]2(CO)CC[C@]3(C)[C@H](CC[C@@H]4[C@@]5(C)CC[C@H](O)C(C)(C)[C@@H]5CC[C@]43C)[C@@H]12
50.3

New cases:
Item O=c1oc2c(O)c(O)cc3c(=O)oc4c(O)c(O)cc1c4c23 with UniProt Q61503 - IC50?
0.04
